System: M. massiliense CRM 0019
protocol_notes: MIC, resazurin microtiter assay
Type: cell-based
assay_conditions: Mycobacteroides abscessus, CRM0019, Mueller Hinton II; read-out: MIC M. massiliense CRM 0019
Would you kindly list MIC for each of these compounds?
Answers are plain numbers, in µg/mL.

Take a look at these entries with their results.
# compound, endpoint_result
records = [
    ("Cc1cc(C)c2cc(C(=O)NC3CCCC3)[nH]c2c1 [Compound 28]", 8),
    ("Cc1cc(C)c2cc(C(=O)NC3CCCCCCC3)[nH]c2c1 [Compound 25]", 0.0078),
    ("CC(NC(=O)c1cc2ccccc2[nH]1)C12CC3CC(CC(C3)C1)C2 (stereo not drawn) [Compound 7]", 8),
]

Now take the following compound into account.
q: Look up and report MIC, with M. massiliense CRM 0019 as system, for O=C(NC1C2CC3CC(C2)CC1C3)c1cc2ccccc2[nH]1 (stereo not drawn) [Compound 9, N-(2-adamantyl)-1H-indole-2-carboxamide]
a: 32
